# Tested on: Plasmodium berghei
# assay.remarks: Antimalarial activity against chloroquine-sensitive Plasmodium berghei ANKA infected BALB/c mice (Mus musculus) erythrocytes at 10 uM after 18 hrs as reduced hemoglobin hydrolysis
# Assay type: functional
metric.name: inhibition at 10 µM (%)
Give the number; % is assumed, so skip it.

Consider the worked cases shown below.
compound	unit.tag	inhibition at 10 µM
Cc1ccccc1N1c2ccc(Cl)cc2S(=O)(=O)c2c(N)n[nH]c21	%	0
COc1cccc(N2c3cc(Cl)ccc3S(=O)(=O)c3c(N)n[nH]c32)c1	%	47.3
COc1cccc(N2c3cc(Cl)ccc3S(=O)(=O)c3c(N)nc(N)nc32)c1	%	56.3
Cc1ccc(C)c(N2c3ccc(Cl)cc3S(=O)(=O)c3c(N)nc(N)nc32)c1	%	0
Nc1nc(N)c2c(n1)N(c1ccc(Br)cc1)c1ccc(Cl)cc1S2(=O)=O	%	0
COc1ccc(N2c3ccc(Cl)cc3S(=O)(=O)c3c(N)n[nH]c32)cc1	%	0
COc1ccc(N2c3ccc(Cl)cc3S(=O)(=O)c3c(N)nc(N)nc32)cc1	%	0
Cc1ccc(N2c3ccc(Cl)cc3S(=O)(=O)c3c(N)nc(N)nc32)cc1	%	0
Nc1n[nH]c2c1S(=O)(=O)c1ccc(Cl)cc1N2c1ccc(Cl)c(Cl)c1	%	67.6
CC(=O)N[C@@H](CC(C)C)C(=O)N[C@@H](CC(C)C)C(=O)N[C@H](C=O)CCCNC(=N)N	%	89.1

Under Plasmodium berghei: inhibition at 10 µM value of Nc1n[nH]c2c1S(=O)(=O)c1ccc(Cl)cc1N2c1cccc(Cl)c1 ?
58.9

Source listed as ChEMBL document CHEMBL1137713.
